System: biotinyl-Phe-oxazolone
experimentNotes: self-aminoacylation, catalytic enhancement (BFO) (fold over background); higher = more active; k-Seq, kA / k0A0; sequences stand for … in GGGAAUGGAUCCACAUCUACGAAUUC…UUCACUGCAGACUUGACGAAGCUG
This sample holds only a part of the variants without activity.
Quick rule for you: self-aminoacylation at 2 or higher means True, lower means False.

Before answering, review these 3 worked examples.
[[record]]
sequenceinput = "UUUACCCUGGUCAUCCAGUGA [Fam2.1 aminoacylation ribozyme variant]"
assayedtarget = "biotinyl-Phe-oxazolone"
categorylabel = "True"

[[record]]
sequenceinput = "CUACUUUAAACAAUCGGGCUG [Fam1A.1 aminoacylation ribozyme variant]"
assayedtarget = "biotinyl-Phe-oxazolone"
categorylabel = "False"

[[record]]
sequenceinput = "GUUCACCUAGGUCAUCGGUUG [Fam2.2 aminoacylation ribozyme variant]"
assayedtarget = "biotinyl-Phe-oxazolone"
categorylabel = "True"


## Task Please check the record CUACUUCAAACAGUCGCUCUG [Fam1A.1 aminoacylation ribozyme variant] and state if its self-aminoacylation is at or above 2.
## Result False

## Task Item: AUUACCCUGGUCAUGGAGUCA [Fam2.1 aminoacylation ribozyme variant]
## Result False
